Target: T1, human EphA10 (Homo sapiens, UniProt Q5JZY3)
T1 construct: a protein of the extracellular region of each human Eph receptor fused with the SEAP protein and the His tag; made in house; host or cells: Expi293F cells (culture supernatant)
T1 sequence (Q5JZY3 34-565 limits assumed): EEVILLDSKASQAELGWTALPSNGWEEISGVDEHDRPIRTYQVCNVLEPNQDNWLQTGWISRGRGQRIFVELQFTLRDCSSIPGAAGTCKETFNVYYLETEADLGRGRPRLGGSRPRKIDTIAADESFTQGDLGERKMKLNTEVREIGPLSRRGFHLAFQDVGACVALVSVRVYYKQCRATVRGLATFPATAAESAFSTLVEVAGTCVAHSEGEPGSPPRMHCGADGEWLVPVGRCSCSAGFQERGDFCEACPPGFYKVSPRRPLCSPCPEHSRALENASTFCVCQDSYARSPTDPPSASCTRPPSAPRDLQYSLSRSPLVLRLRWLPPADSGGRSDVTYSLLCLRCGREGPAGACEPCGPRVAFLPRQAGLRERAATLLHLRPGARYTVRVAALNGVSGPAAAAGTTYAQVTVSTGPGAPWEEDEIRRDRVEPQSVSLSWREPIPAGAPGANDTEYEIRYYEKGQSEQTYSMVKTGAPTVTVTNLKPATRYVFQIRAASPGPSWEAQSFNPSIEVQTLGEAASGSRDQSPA
Assay: Selectivity ELISA of humanized antibodies for human Eph receptor
Assay type: binding
Details: coated protein 1 nM
Threshold check on hEphA10-SEAP-: absorbance at 450 nm, percentage with respect to hEphA4-SEAP-His as 100%: at or above 6% gives class 1, strictly below gives class 0.

Query string: I'd appreciate it if you could say whether 151 (antibody, V domains shown, synthetic humanized antibody heavy chain variable region sequence; synthetic humanized antibody light chain variable region sequence) VH: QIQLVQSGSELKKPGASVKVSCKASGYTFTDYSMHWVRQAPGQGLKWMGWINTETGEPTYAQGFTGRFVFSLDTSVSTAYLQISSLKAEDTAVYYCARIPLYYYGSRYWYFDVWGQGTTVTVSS VL: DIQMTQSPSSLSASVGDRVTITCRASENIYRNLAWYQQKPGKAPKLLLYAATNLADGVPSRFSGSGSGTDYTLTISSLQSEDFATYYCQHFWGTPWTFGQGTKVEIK has hEphA10-SEAP-: absorbance at 450 nm, percentage with respect to hEphA4-SEAP-His as 100% at least equal to 6%.
Result string: class 1

Query string: I'd appreciate it if you could say whether 77 (antibody, V domains shown, synthetic humanized antibody heavy chain variable region sequence; synthetic humanized antibody light chain variable region sequence) VH: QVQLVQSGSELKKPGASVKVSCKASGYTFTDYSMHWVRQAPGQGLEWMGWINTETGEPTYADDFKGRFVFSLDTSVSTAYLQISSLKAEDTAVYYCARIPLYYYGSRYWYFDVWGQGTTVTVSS VL: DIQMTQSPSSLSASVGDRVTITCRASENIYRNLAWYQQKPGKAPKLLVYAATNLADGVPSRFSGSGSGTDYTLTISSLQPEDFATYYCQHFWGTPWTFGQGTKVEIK has hEphA10-SEAP-: absorbance at 450 nm, percentage with respect to hEphA4-SEAP-His as 100% at least equal to 6%.
Result string: class 0

Query string: I'd appreciate it if you could say whether 140 (antibody, V domains shown, synthetic humanized antibody heavy chain variable region sequence; synthetic humanized antibody light chain variable region sequence) VH: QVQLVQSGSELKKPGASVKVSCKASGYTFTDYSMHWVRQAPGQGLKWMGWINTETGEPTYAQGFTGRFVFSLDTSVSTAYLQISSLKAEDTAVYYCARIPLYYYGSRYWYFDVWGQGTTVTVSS VL: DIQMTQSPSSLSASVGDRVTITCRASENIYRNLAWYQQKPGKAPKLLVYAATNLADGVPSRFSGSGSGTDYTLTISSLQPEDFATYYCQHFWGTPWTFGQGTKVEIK has hEphA10-SEAP-: absorbance at 450 nm, percentage with respect to hEphA4-SEAP-His as 100% at least equal to 6%.
Result string: class 0

Query string: I'd appreciate it if you could say whether 94 (antibody, V domains shown, constant regions without entry; synthetic humanized antibody light chain variable region sequence; synthetic humanized antibody heavy chain variable region sequence) VL: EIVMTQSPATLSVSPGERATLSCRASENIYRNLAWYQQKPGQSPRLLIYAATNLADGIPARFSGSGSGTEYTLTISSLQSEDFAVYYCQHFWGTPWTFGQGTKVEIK VH: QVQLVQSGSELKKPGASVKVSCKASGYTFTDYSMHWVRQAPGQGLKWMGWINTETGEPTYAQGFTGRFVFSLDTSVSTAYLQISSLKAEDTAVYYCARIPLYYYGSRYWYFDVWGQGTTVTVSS has hEphA10-SEAP-: absorbance at 450 nm, percentage with respect to hEphA4-SEAP-His as 100% at least equal to 6%.
Result string: class 1

Query string: I'd appreciate it if you could say whether 84 (antibody, V domains shown, constant regions without entry; synthetic humanized antibody light chain variable region sequence; synthetic humanized antibody heavy chain variable region sequence) VL: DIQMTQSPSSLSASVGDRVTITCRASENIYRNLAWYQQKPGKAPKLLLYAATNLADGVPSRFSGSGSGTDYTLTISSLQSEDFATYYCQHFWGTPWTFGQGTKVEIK VH: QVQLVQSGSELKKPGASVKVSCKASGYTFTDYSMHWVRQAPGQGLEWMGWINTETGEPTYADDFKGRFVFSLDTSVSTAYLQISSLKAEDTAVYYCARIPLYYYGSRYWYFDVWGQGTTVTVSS has hEphA10-SEAP-: absorbance at 450 nm, percentage with respect to hEphA4-SEAP-His as 100% at least equal to 6%.
Result string: class 0

Query string: I'd appreciate it if you could say whether 81 (antibody, V domains shown, constant regions without entry; synthetic humanized antibody light chain variable region sequence; synthetic humanized antibody heavy chain variable region sequence) VL: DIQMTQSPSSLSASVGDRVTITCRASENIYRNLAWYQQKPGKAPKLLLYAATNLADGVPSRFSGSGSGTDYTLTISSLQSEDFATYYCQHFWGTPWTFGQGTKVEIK VH: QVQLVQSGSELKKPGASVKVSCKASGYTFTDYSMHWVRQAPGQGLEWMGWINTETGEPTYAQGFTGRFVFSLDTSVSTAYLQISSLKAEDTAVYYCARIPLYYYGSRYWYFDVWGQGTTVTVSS has hEphA10-SEAP-: absorbance at 450 nm, percentage with respect to hEphA4-SEAP-His as 100% at least equal to 6%.
Result string: class 0

Origin of values: patent US10428140B2
